Reference for the values: patent US12171755B2

molecular target: PAPD5 (Homo sapiens); construct: made in house; assay: High-throughput luminescence (KinaseGlo) RNA polyadenylation assay, ATP utilization by recombinant PAPD5; format: biochemical; settings: Table 4 (entries of Table 5); 100 μM compound; ratio of luminescence with inhibitor to DMSO, higher = higher inhibition
Sequence (Q8NDF8 68-698 isoform Q8NDF8-5): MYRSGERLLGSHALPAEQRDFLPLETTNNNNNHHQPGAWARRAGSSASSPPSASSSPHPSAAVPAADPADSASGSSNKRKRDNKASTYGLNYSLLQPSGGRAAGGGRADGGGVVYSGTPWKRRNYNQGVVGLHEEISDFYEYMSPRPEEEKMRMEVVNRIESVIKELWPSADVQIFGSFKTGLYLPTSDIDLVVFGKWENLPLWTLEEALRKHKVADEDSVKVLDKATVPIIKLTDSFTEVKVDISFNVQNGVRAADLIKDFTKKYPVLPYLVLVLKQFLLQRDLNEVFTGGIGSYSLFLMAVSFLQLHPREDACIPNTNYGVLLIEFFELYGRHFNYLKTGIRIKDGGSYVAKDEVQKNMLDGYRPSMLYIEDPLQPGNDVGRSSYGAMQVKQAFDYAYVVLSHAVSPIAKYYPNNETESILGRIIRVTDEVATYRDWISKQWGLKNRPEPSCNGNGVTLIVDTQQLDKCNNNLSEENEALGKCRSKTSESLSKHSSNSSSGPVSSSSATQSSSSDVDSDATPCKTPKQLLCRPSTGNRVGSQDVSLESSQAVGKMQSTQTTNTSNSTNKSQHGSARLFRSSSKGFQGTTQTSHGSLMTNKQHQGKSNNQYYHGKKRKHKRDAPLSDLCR
Measure: Fold-change determined at compound concentration 100 μM

- COCCNC(=O)Cn1cc2c(n1)-c1c(oc(C(=O)N3CCCC3)c1C)CC2 [Entry 171]: 1.777
- COc1c2ccoc2nc2c(OC)cccc12 [Entry 92, 4,8-dimethoxyfuro[2,3-b]quinoline]: 1.478
- CCc1ccccc1NC(=O)Cc1c(C(=O)O)[nH]c2ccc(Cl)cc12 [Entry 110]: 1.298
- COc1c2[nH]c3occc3c(OC)c-2ccc1=O [Entry 91]: 1.537
- O=C(O)c1cccc(Nc2c(-c3cc(Br)ccc3O)nc3cnccn23)c1 [Entry 193]: 1.446
- COc1ccc(Br)cc1[C@@H]1Nc2ccc(C(=O)O)cc2[C@@H]2C=CC[C@@H]21 [Entry 99]: 1.91
- Cc1ccccc1C(=O)Nc1nc2nc(-c3ccccc3)cc(=O)n2[nH]1 [Entry 150]: 1.577
- Cc1c(C(=O)NCc2ccccc2)oc2c1-c1[nH]ncc1CC2 [Entry 175]: 1.352
- Cc1cccc2c1-c1sc(C(=O)NCCCN3CCC(C)CC3)cc1CO2 [Entry 226]: 1.228
- CCS(=O)(=O)c1nc2ccc(NS(=O)(=O)c3ccc(F)c(F)c3)cc2s1 [Entry 206]: 1.225
- Cc1ccc2c(=O)cc(C(=O)Nc3nnc(C)s3)oc2c1 [Entry 116]: 2.138
- O=C(O)C1CCCN(c2ncnc3c2oc2ccccc23)C1 (centres unmarked) [Entry 35]: 1.287
- COc1ccc(-c2n[nH]c3nc(-c4cc(OC)c(OC)c(OC)c4)cc(C(=O)O)c23)cc1 [Entry 183]: 1.346
- COc1ccc(-c2n[nH]c3nc(-c4ccc(O)c(O)c4)cc(C(=O)O)c23)cc1 [Entry 178]: 1.633
